# measurement.target: Human immunodeficiency virus type 1 protease (Human immunodeficiency virus 1)
# method: In vitro inhibition of HIV protease, using a peptide hydrolysis assay
For each entry below, report its IC50 value.
Give bare numbers, in µM.

Please review the entries below; each comes with its answer.
1. CC(C)(C)OC(=O)N[C@@H](Cc1ccccc1)C(O)CNC(Cc1ccccc1)C(=O)NC(CO)c1ccccc1 (some centres not stated)
38
2. CC(C)(C)OC(=O)N[C@@H](Cc1ccccc1)[C@H](O)CNC(C(=O)N[C@H]1c2ccccc2C[C@H]1O)C(O)c1ccccc1 (stereo in doubt; 12)
8.5
3. CC(C)(C)OC(=O)N[C@@H](Cc1ccccc1)[C@@H](O)CN[C@H](Cc1ccccc1)C(=O)N[C@H]1c2ccccc2C[C@H]1O
23.4
4. CC(C)(C)OC(=O)N[C@@H](Cc1ccccc1)[C@@H](O)CN[C@@H](Cc1ccccc1)C(=O)N[C@H]1c2ccccc2C[C@H]1O
4.7
5. CC(C)(C)OC(=O)N[C@@H](Cc1ccccc1)[C@H](O)CN[C@@H](Cc1ccccc1)C(=O)N[C@H]1c2ccccc2C[C@H]1O
0.252
6. CC(C)(C)OC(=O)N[C@@H](Cc1ccccc1)[C@H](O)CNC(C(=O)N[C@H]1c2ccccc2C[C@H]1O)C(O)c1ccccc1 (stereo in doubt; 13)
8.6

Q: What measured IC50 goes with `CC(C)(C)OC(=O)N[C@@H](Cc1ccccc1)[C@H](O)CN[C@H](Cc1ccccc1)C(=O)N[C@H]1c2ccccc2C[C@H]1O` ?
A: 7.3

---

For each of the molecules below, state its pIC50.
# measurement.target: Human immunodeficiency virus type 1 protease (Human immunodeficiency virus 1, UniProt Q72874)
# method: In vitro inhibition of HIV-Protease, using a peptide hydrolysis assay
pIC50: −log10 of the molar value.

Below, 2 molecules whose answers are already recorded.
1. CC(C)(C)NC(=O)[C@@H]1C[C@@H]2CCCC[C@@H]2CN1C[C@@H](O)[C@H](Cc1ccccc1)NC(=O)OC(C)(C)C
< 5.52
2. CC(C)(C)NC(=O)C(Cc1ccccc1)NCC(O)[C@H](Cc1ccccc1)NC(=O)OC(C)(C)C (stereo partly drawn)
< 4.00

# evaluate next
Q: Find the recorded pIC50 belonging to CC(C)(C)OC(=O)N[C@@H](Cc1ccccc1)[C@H](O)CN1C[C@H]2CCCC[C@H]2C[C@H]1C(=O)NC1c2ccccc2CC1O (stereo partly drawn) and report it.
A: < 5.52
